Assay: NCI Yeast Anticancer Drug Screen. Data for the bub3 strain (AID 167)
Details: S. cerevisiae bub3 mutant strain, at 50.0 µM, active compounds read high
This is part of a sample that, as a whole, favours compounds with a hit. Of some 79,000 tested, about 15% had one in any assay.
measure_name: growth inhibition (%)
Number only, in %; omit the unit.

These recorded examples may help you get a feel for the data.
molecule	uom	growth inhibition
Cc1ccc(/C=N/NC(=O)Cc2cccc3ccccc23)cc1	%	17.1
COc1ccc(/C(=N\NC(=O)C(N)=O)C(c2ccc(OC)cc2)C2(O)C(=O)Nc3c(Cl)cccc32)cc1 (stereo not given)	%	0.3

According to the records, this molecule Cc1cc(=O)n(-c2ccccc2)c(=O)n1-c1nc2ccccc2[nH]1 displays growth inhibition of -4.35

c1ccc2c(c1)NCCOCCNc1ccccc1OCCNCCO2 yielded growth inhibition of 30.1

// sample O=C(NCC1(c2ccc3c(c2)OCO3)OCCO1)c1ccccc1[N+](=O)[O-] , its growth inhibition was -5.75

From: PubChem BioAssay (NCI)
